Values from patent US20260308152A1

assay.summary: Chiral acid salt screen: approximate solubility of starting material in solvents
Type: physicochemical
condition.set: MeCN; ambient temperature, 3 days
experimental.readout: Approximate Solubility of Starting Material

compound | endpoint.value
CC(C)c1cc(C(C)C)c(-c2cc3ccccc3c3c2OP(=O)(O)Oc2c(-c4c(C(C)C)cc(C(C)C)cc4C(C)C)cc4ccccc4c2-3)c(C(C)C)c1.COc1ccc(C)c(-n2c(N)c(C#N)c3cc(C)c(C)nc32)c1C [INT 1f/(S)-TRIP] | Soluble
COc1ccc(C)c(-n2c(N)c(C#N)c3cc(C)c(C)nc32)c1C.Cc1ccc(C(=O)O[C@H](C(=O)O)[C@H](OC(=O)c2ccc(C)cc2)C(=O)O)cc1 | Soluble
CC1(C)C2CCC1(CS(=O)(=O)O)C(=O)C2Br.COc1ccc(C)c(-n2c(N)c(C#N)c3cc(C)c(C)nc32)c1C.O | Highly soluble
CC1(C)C2CC[C@@]1(CS(=O)(=O)O)C(=O)C2.COc1ccc(C)c(-n2c(N)c(C#N)c3cc(C)c(C)nc32)c1C [INT 1f/(S)-CSA] | Highly soluble
COc1ccc(C)c(-n2c(N)c(C#N)c3cc(C)c(C)nc32)c1C.O=P1(O)Oc2ccc3ccccc3c2-c2c(ccc3ccccc23)O1 | Soluble
COc1ccc(C)c(-n2c(N)c(C#N)c3cc(C)c(C)nc32)c1C.O=C(O[C@H](C(=O)O)[C@H](OC(=O)c1ccccc1)C(=O)O)c1ccccc1 [INT 1f/(+)-2,3-Dibenzoyl-D-tartaric Acid] | Soluble
